Values from patent US11891365B2

assay system: Full length human recombinant HDAC6 protein (Homo sapiens, UniProt Q9UBN7)
Sequence (Q9UBN7 whole entry): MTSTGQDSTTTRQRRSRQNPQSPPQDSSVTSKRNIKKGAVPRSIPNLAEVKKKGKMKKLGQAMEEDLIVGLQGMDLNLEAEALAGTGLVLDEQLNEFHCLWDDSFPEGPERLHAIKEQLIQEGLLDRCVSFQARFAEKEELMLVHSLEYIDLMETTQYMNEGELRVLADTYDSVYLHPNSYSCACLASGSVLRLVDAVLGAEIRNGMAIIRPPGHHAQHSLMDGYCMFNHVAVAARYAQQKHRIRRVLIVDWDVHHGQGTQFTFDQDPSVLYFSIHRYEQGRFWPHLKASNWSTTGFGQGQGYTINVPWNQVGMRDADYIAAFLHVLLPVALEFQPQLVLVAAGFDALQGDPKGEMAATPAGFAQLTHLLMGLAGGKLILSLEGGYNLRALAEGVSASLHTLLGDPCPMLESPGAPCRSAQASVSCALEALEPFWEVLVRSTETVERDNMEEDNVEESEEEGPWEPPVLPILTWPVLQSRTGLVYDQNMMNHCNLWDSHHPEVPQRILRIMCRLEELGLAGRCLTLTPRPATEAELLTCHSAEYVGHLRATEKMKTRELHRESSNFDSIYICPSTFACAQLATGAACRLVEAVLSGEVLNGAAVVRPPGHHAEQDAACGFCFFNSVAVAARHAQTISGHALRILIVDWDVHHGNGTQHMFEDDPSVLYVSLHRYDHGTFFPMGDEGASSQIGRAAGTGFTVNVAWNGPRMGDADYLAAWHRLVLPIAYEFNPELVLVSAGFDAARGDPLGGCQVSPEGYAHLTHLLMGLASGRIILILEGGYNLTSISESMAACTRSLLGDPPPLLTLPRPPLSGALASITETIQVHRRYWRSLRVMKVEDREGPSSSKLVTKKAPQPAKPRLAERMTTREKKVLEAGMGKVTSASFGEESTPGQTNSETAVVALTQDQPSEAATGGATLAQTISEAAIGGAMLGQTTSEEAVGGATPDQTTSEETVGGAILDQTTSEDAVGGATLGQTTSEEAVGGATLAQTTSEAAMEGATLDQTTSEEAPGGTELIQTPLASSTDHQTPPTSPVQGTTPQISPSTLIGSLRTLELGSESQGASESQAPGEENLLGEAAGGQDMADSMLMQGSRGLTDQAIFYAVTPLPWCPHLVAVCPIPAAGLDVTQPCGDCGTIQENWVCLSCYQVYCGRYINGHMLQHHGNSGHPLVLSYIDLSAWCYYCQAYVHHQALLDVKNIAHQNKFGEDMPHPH
test name: In vitro histone deacetylase assay: enzymatic HDAC6 electrophoretic mobility shift assay
particulars: 1 nM enzyme, 2 μM peptide substrate RHKK(Ac)-NH2, 25° C., 12 concentrations; read-out: Inhibitory Concentration (IC50) Values against HDAC6, Activity Range
pIC50: −log10 of the molar value.
parameter measured: pIC50

Examples from the recorded data:
[
  {
    "molecule": "C[C@H]1c2ccc(C(=O)NO)cc2OCCN1C(=O)C1(C)CCC1",
    "pIC50": "≥ 7.00"
  },
  {
    "molecule": "O=C(NO)c1ccc2c(c1)OCCN(C(=O)C1CCCC13CCNC3)C2 (stereo not shown)",
    "pIC50": "6.30 to 7.00"
  }
]

State the recorded pIC50 for this entry: "COc1ccc(C(=O)N2CCOc3ccc(C(=O)NO)cc3C2)cc1"
< 6.30

Next record, please: "O=C(NO)c1ccc2c(c1)OCCN(C(=O)C1(S(=O)(=O)c3ccccc3)CC1)C2"
≥ 7.00

Next record, please: "C[C@H]1c2ccc(C(=O)NO)cc2OCCN1C(=O)C1CCOCC1"
≥ 7.00

Next record, please: "O=C(NO)c1ccc2c(c1)OCCN(C(=O)C1(c3cnccn3)CC1)C2"
≥ 7.00

Next record, please: "C[C@H]1COc2cc(C(=O)NO)ccc2CN1C(=O)CCOc1ccc(F)cc1"
≥ 7.00

Next record, please: C[C@H]1COc2cc(C(=O)NO)ccc2CN1C(=O)[C@@H]1CC2CCC1O2 (stereo partly shown)
≥ 7.00

Next record, please: "C[C@H]1c2cc(C(=O)NO)ccc2OCCN1C(=O)C1CCOCC1"
< 6.30

Next record, please: "C[C@H]1OCCC[C@@H]1C(=O)N1Cc2ccc(C(=O)NO)cc2OC[C@@H]1C"
≥ 7.00

Next record, please: "C[C@H]1c2cc(C(=O)NO)ccc2OCCN1C(=O)C1(C)CCC1"
6.30 to 7.00
